Target: Papain (Carica papaya)
Sequence (P00784 whole entry): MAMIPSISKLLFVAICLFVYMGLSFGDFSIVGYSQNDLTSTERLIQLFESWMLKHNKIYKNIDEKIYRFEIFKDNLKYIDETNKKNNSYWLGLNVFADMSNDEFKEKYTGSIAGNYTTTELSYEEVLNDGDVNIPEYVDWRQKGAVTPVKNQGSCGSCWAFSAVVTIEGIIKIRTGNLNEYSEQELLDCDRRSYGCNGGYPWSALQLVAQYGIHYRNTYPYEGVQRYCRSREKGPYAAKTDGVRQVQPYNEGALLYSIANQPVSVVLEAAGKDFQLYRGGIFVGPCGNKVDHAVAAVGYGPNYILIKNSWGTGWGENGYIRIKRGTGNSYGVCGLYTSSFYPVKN
pIC50: −log10 of the molar value.
ENDPOINT: pIC50

Reference set, count: 2
{"columns": ["MOLECULE", "EXPERIMENTAL_TARGET", "ENDPOINT", "ENDPOINT_VALUE"],
 "data": [
  ["CCOP(=O)(/C=C/C(NC(=O)[C@H](CC(C)C)NC(=O)OCC1c2ccccc2-c2ccccc21)c1ccccc1)OCC (mixture of isomers)", "Papain (Carica papaya)", "pIC50", "< 3.70"],
  ["CCOP(=O)(/C=C/C(NC(=O)[C@H](Cc1ccccc1)NC(=O)OCc1ccccc1)c1ccccc1)OCC (mixture of isomers)", "Papain (Carica papaya)", "pIC50", 4.52]
]}

Read the next record carefully.
Need pIC50 of CCOP(=O)(/C=C/C(NC(=O)[C@H](Cc1c[nH]c2ccccc12)NC(=O)OCc1ccccc1)c1ccccc1)OCC (mixture of isomers) , thanks.
< 3.70

----------
target: Papain (Carica papaya, UniProt P00784); assay: Inhibition of papaya papain
Peptide text beside a SMILES is read from it. * marks the point of attachment. Cbz = O=C(OCc1ccccc1)*
ENDPOINT: Ki (µM)

Reference set, count: 2
{"columns": ["COMPOUND", "Ki [µM]"],
 "data": [
  ["CC[C@H](C)[C@H](NC(=O)[C@H](CCCNC(=N)N)NC(=O)OCc1ccccc1)C(=O)N[C@H](/C=N/NC(N)=O)Cc1ccccc1", 0.023],
  ["CC(C)[C@H](NC(=O)[C@H](CCCNC(=N)N)NC(=O)N[C@@H](Cc1ccccc1)C(=O)O)C(=O)N[C@H](C=O)CCCNC(=N)N [ANTIPAIN]", 265]
]}

I = O=C(O)CNC(=O)[C@H](Cc1ccccc1)NC(=O)OCc1ccccc1 (Cbz-Phe-Gly-OH)
II = COC(=O)CNC(=O)[C@H](Cc1ccccc1)NC(=O)OCc1ccccc1 (Cbz-Phe-Gly-OMe)
Of I and II , which one carries the higher reported Ki? Answer with the label corresponding to your selection.
I
